Just for reference, the supplement of paper PMC8728848 is where these values come from.

# ASSAYED_TARGET: Fuc(a1-2)[GalNAc(a1-3)]Gal(b1-3)GalNAc(b1-3)Gal(a1-4)Gal(b1-4)Glc
# ASSAY_INFO: glycan array binding signal (z-score within array); higher = stronger binding
# ASSAY_SETUP: glycan notation: IUPAC condensed, linker removed
The full list was thinned out, with the strongest signals kept by preference.
Below, each of the binders is paired with its reported glycan array binding signal (z-score) value.

Here are 2 binders together with their reported answers.
Item: FimD (Bordetella pertussis) (protein) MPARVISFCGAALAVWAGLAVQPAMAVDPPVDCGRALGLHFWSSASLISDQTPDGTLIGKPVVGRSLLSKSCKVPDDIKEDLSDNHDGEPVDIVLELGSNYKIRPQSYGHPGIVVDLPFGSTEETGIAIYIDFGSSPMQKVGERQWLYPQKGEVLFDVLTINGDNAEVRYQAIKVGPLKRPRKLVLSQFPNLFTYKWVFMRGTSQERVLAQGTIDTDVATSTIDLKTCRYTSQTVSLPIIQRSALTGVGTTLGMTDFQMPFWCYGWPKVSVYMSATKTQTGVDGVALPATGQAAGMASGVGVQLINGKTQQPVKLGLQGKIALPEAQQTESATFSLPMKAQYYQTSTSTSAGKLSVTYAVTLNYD | glycan array binding signal (z-score): -0.248

Item: LlpA (Burkholderia cenocepacia) (protein) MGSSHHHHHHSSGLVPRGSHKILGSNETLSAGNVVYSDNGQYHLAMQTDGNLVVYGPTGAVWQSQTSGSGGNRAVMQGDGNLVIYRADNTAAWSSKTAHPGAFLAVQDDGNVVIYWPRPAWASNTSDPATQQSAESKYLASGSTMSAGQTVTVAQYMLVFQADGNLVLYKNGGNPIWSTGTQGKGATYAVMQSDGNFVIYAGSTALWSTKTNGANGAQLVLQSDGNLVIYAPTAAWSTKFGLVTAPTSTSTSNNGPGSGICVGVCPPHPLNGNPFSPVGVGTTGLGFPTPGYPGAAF | glycan array binding signal (z-score): -0.271

More entries:
Item: PLU (Photorhabdus luminiscence) (protein) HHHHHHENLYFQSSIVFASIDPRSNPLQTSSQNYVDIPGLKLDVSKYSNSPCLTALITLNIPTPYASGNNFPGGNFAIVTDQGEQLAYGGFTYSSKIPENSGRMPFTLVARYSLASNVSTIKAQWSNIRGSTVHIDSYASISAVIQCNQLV | glycan array binding signal (z-score): -0.33

Item: Epa2 (Candida glabrata) (protein) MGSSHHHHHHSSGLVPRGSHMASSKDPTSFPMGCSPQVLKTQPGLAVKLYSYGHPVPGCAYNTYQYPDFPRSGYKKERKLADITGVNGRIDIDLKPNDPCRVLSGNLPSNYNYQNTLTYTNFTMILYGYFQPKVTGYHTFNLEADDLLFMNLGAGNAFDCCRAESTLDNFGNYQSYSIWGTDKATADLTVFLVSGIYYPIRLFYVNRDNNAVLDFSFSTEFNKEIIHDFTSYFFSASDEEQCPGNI | glycan array binding signal (z-score): -0.252
